# Tested on: Plasmodium berghei
# measurementDescription: Screen against P. berghei liver stage (PbLuc), transformed with Luciferase, at 10uM
# Assay type: functional, HepG2
# recordedConditions: tested at 10 uM
The campaign covered roughly 69,000 compounds. About 8,600 (12%) showed an effect of 50% or more. Many of the other results were omitted from the sample, so strong results are more common in it than they were.
parameter: INHIBITION (%)
Reply with just the number (in %).

## Task Entry Cc1ccc(-n2cc(C(=O)N3CCCC(n4cccn4)C3)nn2)cc1 (configuration not stated) : reported INHIBITION = ?
## Result -2.19

## Task Try the compound `Cn1cc(C(=O)NC[C@H]2OC[C@@H]3CCN(C4CCOCC4)C[C@@H]32)cn1`
## Result 45.8

## Task Thanks! And Cc1c[nH]c(C2CCCN2C(=O)CCc2c(C)n[nH]c2C)n1 (configuration not stated) ?
## Result -0.13

## Task Consider next the compound `CCOc1ncccc1CNC(=O)Nc1ccccc1` in the same way.
## Result 31.3

## Task What would you report for O=S(=O)(CCCN1CCCCC1Cn1cncn1)c1ccccc1 (configuration not stated) ?
## Result -29.8

## Task What do you have for COCc1nc(C(=O)N2CCCC2c2cccc(C)c2)cs1 (configuration not stated) ?
## Result -23.8

## Task // same read-out, input: `CC(C)(CO)NCc1ccc(OCc2ccc3c(c2)OCCO3)cc1`
## Result 13.5

## Task And Cc1ncsc1CN1Cc2cn(C)nc2C(COCC2CC2)C1 (configuration not stated) ?
## Result 43.9

## Task Input O=C1CCC2(CCC(NCc3ccc4c(c3)OCO4)CC2)N1 (configuration not stated)
## Result 30.9

## Task // next record COc1cccc(-c2nnn(C3CCN(CC(F)(F)F)C3=O)n2)c1 (configuration not stated)
## Result -73.4

## Task Field entry: `CNCc1ccc(OCc2ccc3c(c2)OCCO3)cc1`
## Result -0.621

## Task Same for `CCNCc1ccc(OCc2ccc3c(c2)OCCO3)cc1`
## Result 67.3
